All figures here come from patent US20240294543A1.

I'd be grateful if you could share measured Ki for these entries.
target: human GABAA α5β2γ1 receptor (Homo sapiens (Human), UniProt P31644+Q8N1C3)
assay-explanation: Radioligand binding assay, competition for [3H]RO7239181, γ1-containing GABAA subtypes
Method: The affinity of compounds at GABAA γ1 subunit-containing receptors was measured by competition for [^3H]RO7239181 (67.3 Ci/mmol; Roche) binding to membranes from HEK293F cells (ThermoFisher R79007) expressing human (transiently transfected) receptors of composition α5β2γ1, α2β2γ1, α1β2γ1. […]
Numbers only, in nM.

Example entries and their recorded answers appear below.
>  <compound>
Cc1nnc2n1-c1sc3c(c1C(c1c(F)cccc1F)=N[C@H]2C)CC[C@@H](O)CC3

>  <quantity-unit>
nM

>  <Ki>
10.9

$$$$
>  <compound>
Cc1nnc2n1-c1sc3c(c1C(c1c(F)cccc1F)=N[C@H]2C)COCC[C@@H]3F (single isomer, unassigned)

>  <quantity-unit>
nM

>  <Ki>
9

$$$$
>  <compound>
Cc1nnc2n1-c1sc3c(c1C(c1c(F)cccc1Cl)=N[C@H]2C)COCCC3

>  <quantity-unit>
nM

>  <Ki>
4.98

$$$$

Entry Cc1nnc2n1-c1sc3c(c1C(c1c(F)cccc1F)=N[C@H]2C)CCC(F)C(F)C3 (single isomer, unassigned) ; assay system human GABAA α5β2γ1 receptor (Homo sapiens (Human), UniProt P31644+Q8N1C3); Ki recorded at 20.9

###

target: h-GABA-A α2β2γ1 (Homo sapiens (Human), UniProt P47869+Q8N1C3)
assay-explanation: Two-electrode voltage clamp electrophysiology in Xenopus oocytes expressing GABAA receptors
Type: cell-based
details: Xenopus oocytes, GABA EC20, compound at about 30-fold its Ki α2β2γ1
Protocol: Xenopus Oocytes Preparation Xenopus laevis oocytes at maturation stages V-VI were used for the expression of cloned mRNA encoding GABAA receptor subunits. Oocytes ready for RNA micro-injection were bought from Ecocyte, Castrop-Rauxel, Germany and stored in modified Barth's medium (composition in mM: NaCl 88, KCl 1, NaHCO3 2.4, HEPES 10, MgSO4 0.82, CaNO3 0.33, CaCl2 0.33, pH=7.5) at 20° C. until the experiment. […]
measured-endpoint: Fold increase h-GABA-A α2β2γ1 oocyte @ 30-fold Ki
Numbers only.

For each of the compounds below, note its Fold increase h-GABA-A α2β2γ1 oocyte @ 30-fold Ki.
1. Cc1nc2n(n1)-c1sc3c(c1C(c1c(F)cccc1F)=N[C@H]2C)COC[C@H](C)O3 [Example 39]
2. C[C@@H]1N=C(c2c(F)cccc2F)c2c(sc3c2CCCCC3)-n2ccc(=O)nc21 [Example 7]
3. Cc1nnc2n1-c1sc3c(c1C(c1c(F)cccc1F)=N[C@H]2C)CCCCO3 [Example 19]
4. C[C@@H]1N=C(c2c(F)cccc2F)c2c(sc3c2COCCO3)-n2nc(C(=O)NC3CC3)nc21 [Example 36]

1: 2.50; 2: 2.69; 3: 2.22; 4: 1.89

###

I'd be grateful if you could share measured pKi for these entries.
target: human GABAA α5β2γ1 receptor (Homo sapiens (Human), UniProt P31644+Q8N1C3)
assay-explanation: Radioligand binding assay, competition for [3H]RO7239181, γ1-containing GABAA subtypes
One number for each entry, as −log10 of the molar value.

>  <compound>
C[C@@H]1N=C(c2c(F)cccc2F)c2c(sc3c2COCCC3)-n2cc(C(=O)NCCO)nc21

>  <pKi>
8.53

$$$$
>  <compound>
Cc1nnc2n1-c1sc3c(c1C(c1c(F)cccc1F)=N[C@H]2C)COCCC3

>  <pKi>
8.12

$$$$
>  <compound>
Cc1nnc2n1-c1sc3c(c1C(c1c(F)cccc1F)=N[C@H]2C)CCCCC3F (single isomer, unassigned)

>  <pKi>
8.57

$$$$

// next item, pKi requested
Query C[C@@H]1N=C(c2c(F)cccc2F)c2c(sc3c2COCCO3)-n2nc(C(=O)N3CC(F)C3)nc21 yields pKi of 8.90
